# SYSTEM NAME: whole RNP complex of IAV strain A/PR/8/34 (Influenza A virus)
# TEST DETAILS: Transcription assay (TA assay)
# Assay type: biochemical
# TEST PARAMETERS: RNPs of A/PR/8/34, capped RNA substrate
Listing: log10 of IC50 of selected molecules
Heads up: the numbers are on a log10 scale; they represent IC50 in nM.

Item CCCN(Cc1cccc(-c2ccccc2)c1)Cc1cc(=O)c(O)c2n1CCN(C(C)C)C2=O : provide log10 of IC50
2.84

Item CC(C)N1CCn2c(CN(Cc3ccc(-c4ccccc4)cc3)C3CC3)cc(=O)c(O)c2C1=O : provide log10 of IC50
3.73

Item CCCN(Cc1cc(=O)c(O)c2n1CCN(C(C)C)C2=O)C1(c2ccccc2)CCCC1 : provide log10 of IC50
2.94

Item CC(C)N1CCn2c(CN(Cc3cccc(Cl)c3)C3CC3)cc(=O)c(O)c2C1=O : provide log10 of IC50
2.23

Now for the molecule whose log10 of IC50 we want.
Item CC(C)N1CCn2c(CN(Cc3ccccc3)C(=O)C3CC(F)(F)C3)cc(=O)c(O)c2C1=O : provide log10 of IC50
3.47

---

# SYSTEM NAME: influenza A virus (IAV) PA-Nter fragment (amino acids 1-209) (Influenza A virus)
# Construct: PA-Nter fragment (amino acids 1-209); made in house
# TEST DETAILS: FRET endonuclease activity assay
# Assay type: biochemical
# TEST PARAMETERS: PA-Nter 0.5 μM, 1.6 μM RNA substrate
MEASURED ENDPOINT: log10 of IC50 (log10 of the value in nM)
Heads up: the numbers are on a log10 scale; they represent IC50 in nM.

Recorded results for 5 molecules are shown here.
Item CC(C)N1CCn2c(CN(C)C)cc(=O)c(O)c2C1=O : provide log10 of IC50
1.96

Item CC(C)N1CCn2c(CNC(=O)c3ccc(C(F)(F)F)cc3)cc(=O)c(O)c2C1=O : provide log10 of IC50
3.98

Item CC(C)N1CCn2c(CN(C(=O)Cc3ccc(F)cc3F)C3CCCCC3)cc(=O)c(O)c2C1=O : provide log10 of IC50
2.76

Item CC(C)N1CCn2c(CNC(=O)C3CC3)cc(=O)c(O)c2C1=O : provide log10 of IC50
2.54

Item CC(C)N1CCn2c(CNC3CCCCC3)cc(=O)c(O)c2C1=O : provide log10 of IC50
2.70

Next:
Item CC(C)N1CCn2c(CNS(=O)(=O)c3ccc(Cl)cc3)cc(=O)c(O)c2C1=O : provide log10 of IC50
2.32

Item CC(C)N1CCn2c(CNC(=O)[C@]34C[C@H]5C[C@H](C[C@H](C5)C3)C4)cc(=O)c(O)c2C1=O : provide log10 of IC50
3.16

Item CC(C)N1CCn2c(CN(Cc3ccccc3)c3ccccc3)cc(=O)c(O)c2C1=O : provide log10 of IC50
3.07

---

Listing: pIC50 of selected molecules
# SYSTEM NAME: influenza A virus (IAV) PA-Nter fragment (amino acids 1-209) (Influenza A virus, UniProt P31343)
// pIC50 is dimensionless: -log10 of concentration (M)

Item CC(C)N1CCn2c(CNS(=O)(=O)c3ccc(C#N)cc3)cc(=O)c(O)c2C1=O : provide pIC50
6.49

Item CCCN(Cc1ccccc1)Cc1cc(=O)c(O)c2n1CCN(C(C)C)C2=O : provide pIC50
6.41

Item CC(C)N1CCn2c(CNC(=O)CC(C)(C)C)cc(=O)c(O)c2C1=O : provide pIC50
6.42

Item CC(=O)N(Cc1cc(=O)c(O)c2n1CCN(C(C)C)C2=O)C1CCCCC1 : provide pIC50
7.32

Item CC(C)N1CCn2c(CN(Cc3ccccc3)C(=O)c3ccccc3)cc(=O)c(O)c2C1=O : provide pIC50
6.50

Next:
Item CC(C)N1CCn2c(CNS(=O)(=O)N(C)C)cc(=O)c(O)c2C1=O : provide pIC50
7.05

Item CC(C)N1CCn2c(CNS(=O)(=O)c3cccc(Cl)c3)cc(=O)c(O)c2C1=O : provide pIC50
7.21

Item CN1CCn2c(CNS(=O)(=O)c3ccc(Cl)cc3)cc(=O)c(O)c2C1=O : provide pIC50
6.89

Item CC(C)N1CCn2c(CNS(=O)(=O)c3ccc(Cl)cc3Cl)cc(=O)c(O)c2C1=O : provide pIC50
6.84

Item CC(C)N1CCn2c(CN(Cc3ccccc3)Cc3ccccc3)cc(=O)c(O)c2C1=O : provide pIC50
5.81

Item Cc1cccc(C(=O)NCc2cc(=O)c(O)c3n2CCN(C(C)C)C3=O)c1 : provide pIC50
5.97

Item CC(C)N1CCn2c(CNS(=O)(=O)c3cn(C)cn3)cc(=O)c(O)c2C1=O : provide pIC50
6.59

Item CC(C)N1CCn2c(CNC(=O)C3(c4ccc(Cl)cc4)CCCC3)cc(=O)c(O)c2C1=O : provide pIC50
6.08

Item Cc1ccc(S(=O)(=O)NCc2cc(=O)c(O)c3n2CCN(C(C)C)C3=O)cc1 : provide pIC50
6.69

Item CC(C)N1CCn2c(CNS(=O)(=O)c3cccc(F)c3)cc(=O)c(O)c2C1=O : provide pIC50
6.82
